# TGT: T1, cMet-Fc fusion protein (extracellular domain of the cMet receptor expressed as an Fc-fusion protein) (human, UniProt P08581 25-932)
# T1 construct: extracellular domain; also called soluble cMet-Fc-fusion protein; soluble cMet receptor; not shown: Fc part
# PROTOCOL DESCRIPTION: phage ELISA, cMet-Fc vs TRAIL-Fc
# Protein ELISA (fold over background) values compiled below

Previously resolved entries follow.
BINDER	Protein ELISA (fold over background)
AGAWNCEYPTFICEWQGA [570-E07 peptide-displaying phage (SEQ ID NO: 012)]	4.5 fold
GSDMNCTVLAQDQIFCFREAP [451-C06 peptide-displaying phage (SEQ ID NO: 386)]	3 fold
GSLYRCLGEASPTPPCAYEAP [445-G12 peptide-displaying phage (SEQ ID NO: 380)]	4 fold
AQHQYGQMMVLHIQYDMGEFIP [117-F08 peptide-displaying phage (SEQ ID NO: 462)]	4.5 fold
AGYWHCKGPPHFACEFHGT [331-D03 peptide-displaying phage (SEQ ID NO: 077)]	5.5 fold
GSRFHCWQGDLMQTYCMPMAP [452-A03 peptide-displaying phage (SEQ ID NO: 376)]	3 fold

Let's switch to this binder now.
Q: Return reported Protein ELISA (fold over background). Input binder: AQMYQTPDGVIGKFVDWMFN [119-F06 peptide-displaying phage (SEQ ID NO: 455)]
Result: 8 fold
